molecular target: Aβ40 (UniProt P05067 672-711); assay: cell-based or functional assay
Sequence (P05067 672-711 limits assumed): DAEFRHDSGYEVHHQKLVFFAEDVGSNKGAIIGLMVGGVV
Square brackets hold non-standard residues; d marks the D form.
MEASURED_PROPERTY: Inhibition at 1:1/3 (ThT assay, Aβ:cyclic peptide) (%)
Answer in %, number only, no unit symbol.

BINDER | VALUE
cyclo([dL]L[dW]A[dS]K) (SMILES CC(C)C[C@@H]1NC(=O)[C@@H](CC(C)C)NC(=O)[C@H](CCCCN)NC(=O)[C@@H](CO)NC(=O)[C@H](C)NC(=O)[C@@H](Cc2c[nH]c3ccccc23)NC1=O) [[lLwAsK]: Cyclo-D-leucine-L-leucine-D-tryptophan-L-alanine-D-serine-L-lysine] | 49

input: I am curious: what Inhibition at 1:1/3 (ThT assay, Aβ:cyclic peptide) value has been reported for cyclo([dA]L[dW]H[dS]K) (SMILES CC(C)C[C@@H]1NC(=O)[C@@H](C)NC(=O)[C@H](CCCCN)NC(=O)[C@@H](CO)NC(=O)[C@H](Cc2c[nH]cn2)NC(=O)[C@@H](Cc2c[nH]c3ccccc23)NC1=O) [[aLwHsK]: Cyclo-D-alanine-L-leucine-D-tryptophan-L-histidine-D-serine-L-lysine] ?
output: 12

Values compiled from patent US20170088585A1.
